Please provide measured pIC50 for the entries that follow.
# System: CEM cells HIV-1 protection, formazan growth assay
# protocol.description: NCI AIDS Antiviral Assay
# assay.context: measured here: growth of uninfected CEM cells
Where a SMILES comes first, the peptide text is derived from it.
Please keep in mind that pIC50 is minus log10 of the molar concentration; only the number is needed.

get_value(item= Nc1nc(=S)c2c(ncn2CC(O)CO)[nH]1 (stereo unspecified) , readout=pIC50) returns 3.28

get_value(item= O=C(O)c1cc2c(cc1CC(Cc1ccc3c(c1)CCCC3)C(=O)O)CCCC2 (stereo unspecified) , readout=pIC50) returns 4.29

get_value(item= NS(=O)(=O)c1ccc(N=Cc2cc(Cl)cc(Cl)c2O)cc1 , readout=pIC50) returns 4.78

get_value(item= CC(=O)Nc1sccc1S(=O)(=O)c1ccsc1NC(C)=O , readout=pIC50) returns 5.25

get_value(item= Cc1cc(NS(=O)(=O)c2ccc(NC(=O)c3ccccc3SC(=O)CCCC[n+]3ccccc3)cc2)nc(C)n1 , readout=pIC50) returns 3.97

get_value(item= CC1CC(Nc2ccc(Br)cc2)N(C(=O)c2ccc(Br)cc2)O1 (stereo unspecified) , readout=pIC50) returns 4.77

get_value(item= COc1ccc(C2C3=C(COC3=O)Oc3cc4c(cc32)OCO4)cc1OC (stereo unspecified) , readout=pIC50) returns 6.22

get_value(item= CN=c1ssc(=S)n1C(C)C , readout=pIC50) returns 4.79

get_value(item= CC(C)OP(=O)(OC(C)C)C([CH2][Sn]([CH3])([CH3])[Cl])P(=O)(OC(C)C)OC(C)C , readout=pIC50) returns 5.08

get_value(item= O=C(O)CCc1c2ccc(=O)c(O)c-2oc2c(O)c(O)ccc12 , readout=pIC50) returns 3.99

get_value(item= S=C(NNc1ccccc1)SSSC(=S)NNc1ccccc1 , readout=pIC50) returns 4.58

get_value(item= CC(=O)Oc1ccc2c(c1)O/C(=C\c1ccc(O)cc1)C2=O , readout=pIC50) returns 3.86

get_value(item= CN(C)CCO/N=C1/C=C2CC[C@H]3[C@@H]4CC[C@H](O)[C@@]4(C)CC[C@@H]3[C@@]2(C)CC1 , readout=pIC50) returns 5.22

get_value(item= COC(=O)C1CC2C=CC=CC(=O)C2(C)C1 (stereo unspecified) , readout=pIC50) returns 4.48

get_value(item= CC(C)Oc1c(O)c2c3c(oc(=O)n3C=CC2c2ccccc2F)c1OC(C)C (stereo unspecified) , readout=pIC50) returns 4.53

get_value(item= COc1ccc(-c2cc[n+]([O-])c(C)c2C)c(OC)c1OC , readout=pIC50) returns 4.08

get_value(item= N#Cc1c(-c2ccccc2)cn(C(=O)c2ccccc2)c1N , readout=pIC50) returns 3.72

get_value(item= CCCNCC(=O)O[C@]1(CC)C(=O)OCc2c1cc1n(c2=O)Cc2cc3ccccc3nc2-1 , readout=pIC50) returns 7.28

get_value(item= CN(C)CC1CCC/C1=N\O (stereo unspecified) , readout=pIC50) returns 2.86

get_value(item= O=C(/C=C/c1ccccc1)c1ccc(Oc2ccccc2)cc1 , readout=pIC50) returns 4.63

get_value(item= CCCCCCCCCCCCCCCCNC(=O)/C(=C\c1ccc(Cl)c(Cl)c1)NC(=O)c1ccccc1 , readout=pIC50) returns 4.70

get_value(item= COC(CN(C(C)=O)C1CCC2(SCCS2)c2[nH]c3ccccc3c21)OC (stereo unspecified) , readout=pIC50) returns 3.91

get_value(item= C/C(=N\NC(=S)N1CCN(c2ccccn2)CC1)c1cccc(C)n1 , readout=pIC50) returns 7.81

get_value(item= CCCCCC[C@@H]1CCC2C(CO)[C@@H](O)CC[C@@H]2C1 (stereo partly specified) , readout=pIC50) returns 4.55

get_value(item= CC1(C)CC(=O)C2=C(C1)NC(SSC1=C(C#N)C(c3ccccc3)C3=C(CC(C)(C)CC3=O)N1)=C(C#N)C2c1ccccc1 (stereo unspecified) , readout=pIC50) returns 4.81

get_value(item= Cn1nc(/C=C/c2ccccc2)nc2c(=O)n(C)c(=O)nc1-2 , readout=pIC50) returns 6.20

get_value(item= C[C@@H](NC(=O)CNC(=O)OC(C)(C)C)C(=O)N[C@@H](Cc1ccccc1)C(=O)OCc1ccccc1 (HELM PEPTIDE1{[CC(C)(C)OC(=O)[*:2]].G.[dA].F.[c1ccc(CO[*:1])cc1]}$$$$V2.0) , readout=pIC50) returns 4.01

get_value(item= CO[C@@]12[C@@H]3N[C@@H]3CN1C1=C(C(=O)C(NCCc3ccccn3)=C(C)C1=O)[C@@H]2COC(N)=O , readout=pIC50) returns 5.70

Origin of measurements: PubChem BioAssay AID179
